Target: HLA-B*58:01
Test: IEDB peptide-MHC binding, purified MHC/direct/fluorescence; filed as Kd, often an IC50 or EC50 that approximates it; bounds were set here for any values at or beyond the usual limits of such assays
Conditions: source organism: Salmonella enterica
measure-name: Kd

So what's the measured Kd for this one? "QTDDGVRFT" ≥ 20 µM

====

Biological target: HLA-A*69:01
Test: IEDB peptide-MHC binding, purified MHC/direct/fluorescence; filed as Kd, often an IC50 or EC50 that approximates it; bounds were set here for any values at or beyond the usual limits of such assays
Settings: source organism: Influenza A virus (A/Viet Nam/HN/2004(H5N1))
pKd: −log10 of the molar value.
measure-name: pKd

So what's the measured pKd for this one? "FRNQVKIRR" ≤ 4.70

====

Target: HLA-A*01:01
Test: IEDB peptide-MHC binding, purified MHC/competitive/radioactivity; filed as Kd, often an IC50 or EC50 that approximates it; bounds were set here for any values at or beyond the usual limits of such assays
Details: source organism: Lassa virus Josiah
measure-name: Kd (nM)
Give your result in nM as a bare value.

So what's the measured Kd for this one? "LISIFLHLV" 1910

====

Molecular target: HLA-B*18:01
Test: IEDB peptide-MHC binding, purified MHC/direct/fluorescence; filed as Kd, often an IC50 or EC50 that approximates it; bounds were set here for any values at or beyond the usual limits of such assays
Settings: source organism: Mycobacterium tuberculosis
pKd: −log10 of the molar value.
measure-name: pKd

What is its pKd for HLA-B*18:01? Entry: "KPARGGSSI" ≤ 4.70

====

Target: HLA-A*29:02
Test: IEDB peptide-MHC binding, purified MHC/competitive/fluorescence; filed as Kd, often an IC50 or EC50 that approximates it; bounds were set here for any values at or beyond the usual limits of such assays
Conditions: source organism: Entamoeba dispar SAW760
measure-name: Kd

LVGNTLTTC
≥ 20 µM

Next up:
What is its Kd for HLA-A*29:02? Entry: "FELLHFISS" ≥ 20 µM

====

Target: HLA-C*07:02
Experiment: IEDB peptide-MHC binding, purified MHC/direct/fluorescence; filed as Kd, often an IC50 or EC50 that approximates it; bounds were set here for any values at or beyond the usual limits of such assays
Settings: source organism: Yersinia pestis Nepal516
pKd by entry:
Remember, pKd is on a log scale: it is -log10 of the molar concentration.

YRYCHQLAL
7.41

Next up:
So what's the measured pKd for this one? "HLIQNPNPF" 6.20

====

Target: HLA-A*03:01
Assay: IEDB peptide-MHC binding, purified MHC/competitive/radioactivity; filed as Kd, often an IC50 or EC50 that approximates it; bounds were set here for any values at or beyond the usual limits of such assays
Conditions: source organism: Lassa virus Josiah
measure-name: pKd
Remember, pKd is on a log scale: it is -log10 of the molar concentration.

So what's the measured pKd for this one? "TLTNTSIINH" 5.29

====

Molecular target: HLA-B*07:02
Assay: IEDB peptide-MHC binding, purified MHC/direct/fluorescence; filed as Kd, often an IC50 or EC50 that approximates it; bounds were set here for any values at or beyond the usual limits of such assays
Details: source organism: Rickettsia prowazekii
pKd: −log10 of the molar value.
measure-name: pKd

So what's the measured pKd for this one? "YGGKKAVTY" ≤ 4.70

All values here come from the Immune Epitope Database (IEDB).
